All figures here come from PubChem BioAssay (NCI).

System: SK-MEL-28 melanoma
Test: NCI-60 one-dose screen, 48 h (100 = growth as untreated, 0 = no growth, -100 = all killed)
Conditions: 10 µM unless noted
The panel holds about 83,000 compounds, 20% with a hit somewhere; the sample as a whole holds those more often.
The reader will find reported growth values listed item by item below.

{"columns": ["COMPOUND", "growth, %"],
 "data": [
  ["CCOCCC(=O)O", 109],
  ["O=[N+]([O-])c1ccc(N2CCN=N2)cc1", 93.7],
  ["CCN(CC)CCNC(=O)c1ccc(NCN2C(=O)NC(c3ccccc3)(c3ccccc3)C2=O)cc1", 117],
  ["C/C(CC(C)C)=N/NC(N)=S", 106],
  ["CCN(CC)C(CC(=O)c1ccccc1)C(=O)c1ccccc1 (stereo unspecified)", 118],
  ["COC(=O)c1nc(=S)[nH]c(C(=O)OC)c1C(=O)c1ccc(OC)cc1", 109]
]}
